Test system: TK-10
Assay protocol: NCI tumour cell line growth inhibition, 48 h
Calls of active or inactive are those of the source. Cut-off read from the data, not from the text of the source: active = GI50 up to about 1.1 µM and inactive = higher.
Readout label: GI50

Dear colleague, could you please provide GI50 for the compounds listed below?
1. NCCNS(=O)(=O)c1ccc(N)cc1
2. C/C(=N\NC(=S)N(C)C)c1ncc[nH]1
3. COc1cc(C(O)c2ccc3c(c2)OCO3)cc(OC)c1OC (stereo unspecified)
4. S=C(N/N=C\c1ccccn1)N(Cc1ccccn1)Cc1ccccn1

## Output
["> 100 µM (inactive)", "13.3 µM (inactive)", "> 100 µM (inactive)", "0.637 µM (active)"]

Dear colleague, could you please provide GI50 for the compounds listed below?
1. CCCN(CCC)CCc1ccc(OC2=CCN(C)CC2)cc1
2. CC(=O)O[C@H]1C(=O)O[C@@H]2C[C@H]3C(C)=CC(=O)[C@@H](O)[C@]3(C)[C@H]3[C@@]4(O)OC[C@]32[C@@H]1[C@@H](C)[C@H]4O
3. CO[C@]12S[C@@H]3CCCC[C@@]31C(C)(C)C(=O)N2c1ccccc1

## Output
87.3 µM (inactive)
< 0.0234 µM (active)
55.5 µM (inactive)

Dear colleague, could you please provide GI50 for the compounds listed below?
1. CCOC(=O)C(C(C)=O)C1CC=CC1 (stereo unspecified)
2. CCCCCCCCCCCCCCCC1(OC)C[N+](C)(C)CCO1 (stereo unspecified)

## Output
1: > 100 µM (inactive); 2: 2.45 µM (inactive)

Dear colleague, could you please provide GI50 for the compounds listed below?
1. Cc1ccc(NC(=O)/C(CC2Nc3c(ccc4c3C(=O)c3ccccc3C4=O)NC2O)=N/NC(C)(C)C)cc1 (stereo unspecified)
2. Cc1cn(C(CO)OC(CO)CN(O)C2C3CC4CC(C3)CC2C4)c(=O)[nH]c1=O (stereo unspecified)

## Output
7.66 µM (inactive)
> 100 µM (inactive)
